Where these numbers come from: PubChem BioAssay (NCI)

Test system: SR leukemia
Test: NCI-60 one-dose screen, 48 h (100 = growth as untreated, 0 = no growth, -100 = all killed)
Details: 10 µM unless noted
The panel holds about 83,000 compounds, 20% with a hit somewhere; the sample as a whole holds those more often.
Param label: returns yes (1) when growth < 50%, returns no (0) otherwise, including exact equality.

INSERT INTO measurements (compound, tgt, labelclass) VALUES
  ('CCc1c(C)c2cc(-n3c(-c4ccc(OC)cc4)csc3=N)c(O)c(C)c2oc1=O', 'SR leukemia', 'yes (1)');

Quick check: growth of O=C(C[n+]1ccccc1Cl)c1ccc2c(c1)CCCC2 under 50%?
no (0)
